Values compiled from DBAASP.

The following compounds have recorded MIC on Candida albicans ATCC 90028.

SAMPLE SMILES	MIC
NCCCC[C@H](NC(=O)[C@H](Cc1c[nH]c2ccccc12)NC(=O)[C@H](CCCCN)NC(=O)[C@H](Cc1c[nH]c2ccccc12)NC(=O)[C@H](Cc1c[nH]c2ccccc12)NC(=O)[C@H](CCCCN)NC(=O)[C@H](Cc1c[nH]c2ccccc12)NC(=O)[C@@H](N)CCCCN)C(N)=O	≥ 100 µM
CC[C@H](C)[C@@H]1NC(=O)CNC(=O)[C@H](CCCN=C(N)N)NC(=O)[C@H](Cc2ccc(O)cc2)NC(=O)[C@H](CO)NC(=O)[C@H](C(C)C)NC(=O)[C@H](CCCN=C(N)N)NC(=O)[C@H](Cc2ccccc2)NC(=O)[C@@H](NC(=O)[C@H](Cc2c[nH]c3ccccc23)NC(=O)[C@@H](N)CCCCN)CSSC[C@@H](C(=O)N[C@@H](CCCN=C(N)N)C(=O)O)NC(=O)[C@H](CCCN=C(N)N)NC(=O)[C@H](CCCN=C(N)N)NC(=O)[C@H](Cc2ccc(O)cc2)NC(=O)[C@H](C)NC1=O	0.901 µM
